PROTOCOL: Exposed Polar Surface Area (EPSA)
Assay type: physicochemical
MEASUREMENT CONDITIONS: SFC on Chirex 3014 column; sample 1 mM DMSO stock; read-out: EPSA
QUANTITY KIND: EPSA (A^2)
Please give a number only; it is taken to be in A^2.

Prompt line: Sample "CC(=O)NCCCC[C@@H]1NC(=O)[C@H](Cc2c[nH]c3c(C)cccc23)NC(=O)[C@H]([C@@H](C)O)NC(=O)[C@H](CC(N)=O)NC(=O)[C@@H](NC(C)=O)C(C)(C)SSC(C)(C)[C@@H](C(=O)N[C@@H](Cc2ccc(OCCNC(=O)CCOCCOCC[N+](C)(C)C)cc2)C(=O)N[C@@H](Cc2ccc3ccccc3c2)C(=O)NC2(C(=O)N[C@@H](CNC(C)=O)C(=O)N[C@@H](CC(N)=O)C(=O)N[C@@H](Cc3cccnc3)C(=O)N(C)CC(N)=O)CCOCC2)NC1=O" — what was its EPSA?
Response line: 144

Prompt line: Now the same for CC(=O)N[C@@H]1C(=O)N[C@@H](CC(=O)N(C)C)C(=O)N[C@@H]([C@@H](C)O)C(=O)N[C@@H](Cc2c[nH]c3c(C)cccc23)C(=O)N[C@@H](COCCOCC[N+](C)(C)C)C(=O)N[C@H](C(=O)N[C@@H](Cc2ccc(OCCOCCOCC[N+](C)(C)C)cc2)C(=O)N[C@@H](Cc2ccc3ccccc3c2)C(=O)NC2(C(=O)N[C@@H](COCCOCC[N+](C)(C)C)C(=O)N[C@@H](CC(N)=O)C(=O)N[C@@H](Cc3cccnc3)C(=O)N(C)CC(=O)N(C)C)CCOCC2)C(C)(C)SSC1(C)C (relative stereo)
Response line: 142

Prompt line: Check "CC(=O)NCCCC[C@@H]1NC(=O)[C@H](Cc2c[nH]c3c(C)cccc23)NC(=O)[C@H]([C@@H](C)O)NC(=O)[C@H](CC(N)=O)NC(=O)[C@@H](NC(=O)COCCOCCNC(=O)COCCOCCNC(=O)CCCc2ccc(I)cc2)C(C)(C)SSC(C)(C)[C@@H](C(=O)N[C@@H](Cc2ccc(OCCCCC[N+](C)(C)C)cc2)C(=O)N[C@@H](Cc2ccc3ccccc3c2)C(=O)NC2(C(=O)N[C@@H](CCCCNC(C)=O)C(=O)N[C@@H](CC(N)=O)C(=O)N[C@@H](Cc3cccnc3)C(=O)N(C)CC(N)=O)CCOCC2)NC1=O" too.
Response line: 168

Prompt line: Could you do the same for "CC(=O)NCCCC[C@@H]1NC(=O)[C@H](Cc2c[nH]c3c(C)cccc23)NC(=O)[C@H]([C@@H](C)O)NC(=O)[C@H](CC(N)=O)NC(=O)[C@@H](NC(=O)CCCCC[N+](C)(C)C)C(C)(C)SSC(C)(C)[C@@H](C(=O)N[C@@H](Cc2ccc(OCCNC(=O)CCOCCOCC[N+](C)(C)C)cc2)C(=O)N[C@@H](Cc2ccc3ccccc3c2)C(=O)NC2(C(=O)N[C@@H](CNC(C)=O)C(=O)N[C@@H](CC(N)=O)C(=O)N[C@@H](Cc3cccnc3)C(=O)N(C)CC(N)=O)CCOCC2)NC1=O" , please?
Response line: 149
